Source: ChEMBL document CHEMBL1201862

- System: SW-620
- run-description: NCI tumour cell line growth inhibition, 48 h
Active and inactive are the calls of the source. Rule as the data show it: active = GI50 up to about 1.1 µM and inactive = higher. Square brackets hold non-standard residues; d marks the D form. Peptide text beside a SMILES is read from it. ξ: configuration not given here. ξ2Thi = NC(Cc1cccs1)C(=O)O; ξR = N=C(N)NCCCC(N)C(=O)O; ξI = CCC(C)C(N)C(=O)O; ξL = CC(C)CC(N)C(=O)O; ξK = NCCCCC(N)C(=O)O; ξT = CC(O)C(N)C(=O)O; ξA = CC(N)C(=O)O
# valid calls are Y (active), N (inactive); nothing else

c1ccc(-c2c[nH]c(SC(c3ccccc3)c3ccccc3)n2)cc1
N
CCC(C)C(NC(=O)C(Cc1cccs1)NC(=O)C(CC(C)C)NC(=O)C(CC(C)C)NC(=O)C(CCCCN)NC(=O)C(CCCN=C(N)N)NC(=O)[C@H](Cc1ccc(O)cc1)NC(=O)C(NC(=O)C(C)NC(=O)C(N)CC(C)C)C(C)O)C(=O)NC(CC(C)C)C(N)=O (stereo not given in full) (H-[ξL][ξA][ξT]Y[ξR][ξK][ξL][ξL][ξ2Thi][ξI][ξL]-NH2)
N
NC(=O)NC(=O)c1cccc(NC(=O)CBr)c1
Y
CC(C)(N)C(=O)N[C@@H]1C(=O)N2[C@@H]1SC(C)(C)[C@@H]2C(=O)O
N
COc1cc(Nc2cnc3ccc(N)cc3n2)cc(OC)c1OC
N

Given O=c1c(NCc2ccccc2)c(C2(c3ccccc3F)SCCCS2)c1=O , state the outcome it received in this test. N

Assay result, entry Nc1nc2c3c(ncn3CC(O)CO2)n1 (stereo not given) — outcome? N

Per the records of this test, what outcome belongs to O=C(Nc1c(O)[nH]c(=S)[nH]c1=O)c1ccco1 ? N

Give the logged outcome of this assay for the following molecule: CC(=O)OC[C@H]1[C@@H]2C(CC[C@]13CO3)OC(=O)CC(C)[C@]2(C)CCc1ccoc1 (stereo not given in full) N

Outcome? O/N=C1/CCCCC1NO (stereo not given) N

Per the assay record, what outcome was assigned to COc1ccc(/C(C)=N/NC(=O)c2ccncc2)cc1OC ? N

What is the recorded call for this molecule in the test? Fc1ccccc1C1CC(c2ccc3ccccc3c2)=Nc2ccccc2S1 (stereo not given) N

Assay result, entry c1ccc(C(Oc2noc3ccccc23)c2ccccc2)cc1 — outcome? N

Outcome? Cn1ncnc1CCc1ccccc1 N

// outcome(item) with item = COC1=C[C@]2(CCC(=O)O2)[C@@H]2Cc3ccccc3[C@H](O)[C@@H]2C1=O N

How did this test come out for Nc1cccc2nnccc12 ? N

----------
- Test system: SK-MEL-2
- run-description: NCI tumour cell line growth inhibition, 48 h
Calls of active or inactive are those of the source. Cut-off read from the data, not from the text of the source: active = GI50 up to about 1.1 µM and inactive = higher.
metric: GI50

Recorded results for 3 compounds are shown here.
Oc1c2c(nc3cc4c(cc13)OCO4)-c1ccccc1CC2
> 100 µM (inactive)
CCCCCCCCC(=O)N(C)C1C2CN3CCC(O2)C13 (centres undefined)
> 100 µM (inactive)
c1cc2cc(Cc3ccc4[nH]ccc4c3)ccc2[nH]1
22.4 µM (inactive)

What is its GI50 for SK-MEL-2? Entry: C(/Cc1ccc2c(c1)OCO2)=N\N=C1NCCCN1 > 100 µM (inactive)

// lookup GI50 | system=SK-MEL-2 | key= Clc1ccc(/C(=C/c2ccccc2)Cn2ccnc2)cc1 14.6 µM (inactive)

Can you look up GI50 on SK-MEL-2 for c1ccc2c(c1)N=C(NC1CCCCC1)CCN2 ? > 100 µM (inactive)

For SK-MEL-2, provide GI50 of CCOc1cc2c(cc1O)C(=O)C[C@@H]1[C@@H]2CC[C@]2(C)[C@@H](O)CC[C@@H]12 please. 4.85 µM (inactive)

# get_value(readout= GI50, system= SK-MEL-2) for CCOC(=O)/C(C#N)=C(/NS(=O)(=O)c1cc(C)c(Cl)cc1[S-])[n+]1ccc(N(C)C)cc1 > 100 µM (inactive)

State its GI50 on SK-MEL-2: CN(C)/C=N/c1c2ccccc2nc2ccccc12 2.69 µM (inactive)

API: value(readout= GI50, system= SK-MEL-2, query= COP(=N[Si](C)(C)C)(OC)OC ) > 100 µM (inactive)

Form field - read-out: GI50; system: SK-MEL-2; submitted item: NC(=O)c1nnc2cc(F)ccc2c1N > 100 µM (inactive)

Given the entry Cc1cc(C)c2c(n1)S(=O)(=O)N(CCCN1CCN(c3cccc(Cl)c3)CC1)C(C(=O)c1ccc(Br)cc1)=C2O , what GI50 was observed with SK-MEL-2? 20.5 µM (inactive)

Value wanted: GI50 (SK-MEL-2) of entry COc1cccc([C@H]2CC(=O)c3cc4c(cc3N2)OCO4)c1 0.578 µM (active)

Give GI50 (SK-MEL-2) of the following compound: Nc1cc(N2CCCC2)nc(=O)n1Cc1ccccc1 > 100 µM (inactive)

Hello, I am looking for reported GI50 with SK-MEL-2 for COc1cc2c(c(OC)c1)C(=O)O[C@H](C)CCCC/C=C/C2 . Could you help? 12.1 µM (inactive)

Form field - read-out: GI50; system: SK-MEL-2; submitted item: COc1oc(C(=O)NC2CCCCC2)c(-c2ccc(Cl)cc2)c1S(=O)(=O)c1ccccc1 13.4 µM (inactive)
